# maps each entry to its IC50
- System: spindle assembly checkpoint in HeLa cells (phosphorylated histone H3 on serine 10)
- PROCEDURE_TEXT: Spindle Assembly Checkpoint Assay
- Assay type: cell-based
- EXPERIMENTAL_PARAMETERS: Homo sapiens, nocodazole 0.1 μg/ml, 4 h with compound

The examples below pair each entry with its known result.
1. COc1ccc(Oc2cc(NCC3CCOCC3)c3ncc(-c4ccc(C(=O)NC5CC5)c(C)c4)n3n2)c(F)c1F [Compound A28] : < 1 nM
2. COc1ccc(Oc2cc(NCCC(F)(F)F)c3ncc(-c4ccc(C(=O)NC5CC5)c(C)c4)n3n2)c(F)c1F [Compound A27] : < 1 nM

Now look at this entry.
Using the record for COc1ccc(Oc2cc(NCC3COC3)c3ncc(-c4ccc(C(=O)NC5CC5)c(C)c4)n3n2)cc1F [Compound A26] , report its IC50.
< 1 nM

###

- Tested on: rat hepatocytes
- PROCEDURE_TEXT: In vitro metabolic stability in rat hepatocytes
- Type: in vitro ADME
- EXPERIMENTAL_PARAMETERS: 1 μM test compound, calculated from half-life
# maps each entry to its Fmax (maximal oral bioavailability)
Write the answer as a number in %, unit excluded.

The examples below pair each entry with its known result.
1. Cc1cc(-c2cnc3c(NCCC(F)(F)F)cc(C(O)c4cccc(F)c4O)nn23)ccc1C(=O)NC1CC1 (racemic) : 18
2. Cc1cc(-c2cnc3c(NCCC(F)(F)F)cc(C(=O)c4cccc(F)c4F)nn23)ccc1C(=O)NC1CC1 : 51

Lab request: please report Fmax (maximal oral bioavailability) under test system rat hepatocytes for Cc1cc(-c2cnc3c(NCCC(F)(F)F)cc(Cc4cccc(F)c4)nn23)ccc1C(=O)NC1CC1 [Comparative Example 3, reference compound]
43

Lab request: please report Fmax (maximal oral bioavailability) under test system rat hepatocytes for COc1ccc(C(=O)c2cc(NCCC(F)(F)F)c3ncc(-c4ccc(C(=O)NC5CC5)c(C)c4)n3n2)cc1F
75

Lab request: please report Fmax (maximal oral bioavailability) under test system rat hepatocytes for COc1cccc(C(=O)c2cc(NCCC(F)(F)F)c3ncc(-c4ccc(C(=O)NC5CC5)c(C)c4)n3n2)c1
26

Lab request: please report Fmax (maximal oral bioavailability) under test system rat hepatocytes for COc1cccc(Cc2cc(NCCC(F)(F)F)c3ncc(-c4ccc(C(=O)NC5CC5)c(C)c4)n3n2)c1 [Comparative Example 4, reference compound]
18

###

- System: rat hepatocytes
- PROCEDURE_TEXT: In vitro metabolic stability in rat hepatocytes
- Type: in vitro ADME
- EXPERIMENTAL_PARAMETERS: 1 μM test compound, calculated from half-life
MEASUREMENT_NAME: Fmax (maximal oral bioavailability) (%)
Write the answer as a number in %, unit excluded.

1) Cc1cc(-c2cnc3c(NCCC(F)(F)F)cc(C4(c5cccc(F)c5)CC4)nn23)ccc1C(=O)NC1CC1 : 52

Using the record for Cc1cc(-c2cnc3c(NCCC(F)(F)F)cc(C(F)(F)c4cccc(F)c4)nn23)ccc1C(=O)NC1CC1 , report its Fmax (maximal oral bioavailability).
70

Using the record for Cc1cc(-c2cnc3c(NCCC(F)(F)F)cc(C(F)c4cccc(F)c4)nn23)ccc1C(=O)NC1CC1 (racemic) , report its Fmax (maximal oral bioavailability).
49

Using the record for COc1ccc(C(F)(F)c2cc(NCCC(F)(F)F)c3ncc(-c4ccc(C(=O)NC5CC5)c(C)c4)n3n2)cc1 , report its Fmax (maximal oral bioavailability).
56

Using the record for C=C(c1cc(NCCC(F)(F)F)c2ncc(-c3ccc(C(=O)NC4CC4)c(C)c3)n2n1)c1cccc(F)c1F , report its Fmax (maximal oral bioavailability).
53
